B1: H2-Kb / B3 (parent)
chain 1: GQQVKQSSPSLTVQEGGISILNCDYENDMFDYFAWYKKYPDNSPTLLISVRSNVDKREDGRLTVFLNKSGKHFSLHITASQPEDTAVYLCAAGNTGYQNFYFGKGTSLTVIP
chain 2: DSGVVQSPRHIIKEKGGRSVLTCIPISGHSNVVWYQQTLGKELKFLIQHYEKVERDKGFLPSRFSVQQFDDYHSEMNMSALELEDSAMYFCASSSLQGARNQAPLFGEGTRLSVL
chain 3: not shown
chain 4: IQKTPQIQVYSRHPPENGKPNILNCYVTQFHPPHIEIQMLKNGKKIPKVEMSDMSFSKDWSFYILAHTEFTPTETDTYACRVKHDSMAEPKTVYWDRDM
chain 5: SIINFEKL

- Variants of: B1
- Assay notes: % of reporter cells activated (NFAT-GFP), raw; further: test concentration or dose not given here
- Condition context: with B3; scale: % of reporter cells activated
Class field: derived from ratio to parent; ranges range 1 = under 0.2, range 2 = from 0.2 up to 0.6, range 3 = 0.6 and over

Check out these entries, answers already filled in.
sequence_change="chain 5 N4E" class_assignment="range 1"
sequence_change="chain 5 L8D" class_assignment="range 2"
sequence_change="chain 5 E6L" class_assignment="range 3"
sequence_change="chain 5 I2V" class_assignment="range 3"

Entry chain 5 E6V belongs to which category?
range 3

For this variant, which bin applies? chain 5 S1E
range 2

Categorize the following entry: chain 5 K7G
range 1

For the record chain 5 I3Y , report the class its ratio to parent corresponds to.
range 1

Which band does chain 5 I3R fall in?
range 1

Assign a bin to chain 5 S1L
range 1

Place this variant in its band: chain 5 L8V
range 3

Categorize the following entry: chain 5 E6M
range 3

Could you place chain 5 E6N in its proper category? Many thanks.
range 3

Sort chain 5 K7Y into one of the categories.
range 2

Note: place this variant into its band. Item: chain 5 N4G
range 1

Dear colleague, I would appreciate it if you could identify the bin for chain 5 E6T and reply at your convenience.
range 3

Field: class (ratio to parent) — entry: chain 5 N4D
range 1
